Provenance of the data: PubChem BioAssay (NCI)

Test system: COLO 205 colon
Test: NCI tumour cell line growth inhibition, 48 h
Quantity: TGI

Please fill in: TGI reported for "CCC[CH2][Sn]([CH2]CCC)([O]c1cccc2cccnc12)[O]c1cccc2cccnc12" = 1.7 µM

Please fill in: TGI reported for "CSc1nc(C)cc(Nc2ccc(O)c(CN3CCOCC3)c2)n1" = > 100 µM

Please fill in: TGI reported for "CC(=O)Oc1cc(S(=O)(=O)Nc2n[nH]c(Nc3ccc(C)cc3)n2)c(S)cc1Cl" = > 100 µM

Please fill in: TGI reported for "O=C(/C=C/c1ccc(Cl)cc1)c1ccccc(=O)c1O" = 6.53 µM

Please fill in: TGI reported for "CCCCOC(=O)c1ccc(N)cc1" = > 100 µM

Please fill in: TGI reported for "COc1ccc(OC)c(NCC(=O)Nn2cnc3ccc(S(=O)(=O)Nc4cc(OC)ccc4OC)cc3c2=O)c1" = > 100 µM

Please fill in: TGI reported for CCOC(=O)C1SC(=Nc2ccc(OC)c(OC)c2)N=C1C (stereo not drawn) = > 100 µM

Please fill in: TGI reported for CN(CCCCCl)P(=O)(OCCS(=O)(=O)CC(NC(=O)CCC(N)C(=O)O)C(=O)NC(C(=O)O)c1ccccc1)OCC1OC(n2ccc(N)nc2=O)C(O)C1O (stereo not drawn) = > 75 µM

Please fill in: TGI reported for "Cn1c(=O)c(Oc2ccc(F)cc2F)cc2cnc(NC(C)(C)CO)nc21" = > 25 µM

Please fill in: TGI reported for "Cc1c2ccn(O)cc2c(C)c2c1nc1ccccc12" = > 100 µM

Please fill in: TGI reported for CC(CC(=O)N1C(=O)C(C)(C)[C@@H](O)[C@H]1CC(C)C(Cl)(Cl)Cl)C(Cl)(Cl)Cl (stereo partly drawn) = > 100 µM

Please fill in: TGI reported for "CC(=O)/C(=C/c1ccccc1)C(=O)CC(C)C" = 35.5 µM

Please fill in: TGI reported for "O=C(O)[C@H](Cc1c[nH]c2ccccc12)N1C(=O)c2ccccc2C1=O" = > 100 µM

Please fill in: TGI reported for "Cc1ccc2oc(=O)cc(/C(=C3/C=CC=N3)c3ccc[nH]3)c2c1" = 3.49 µM

Please fill in: TGI reported for "O=C(Nc1ccc(Cc2ccccc2)cc1)Nc1nn(C(=O)Nc2ccc(Cc3ccccc3)cc2)c2ccccc12" = > 100 µM

Please fill in: TGI reported for CCCCC(CCCCCC(CCCC)NCc1ccc2c(c1)OCO2)NCc1ccc2c(c1)OCO2 (stereo not drawn) = 0.35 µM

Please fill in: TGI reported for CCOC(=O)CC(c1ccccc1)C(C)(C(=O)OCC)C(=O)OCC (stereo not drawn) = > 100 µM

Please fill in: TGI reported for O=C(CC1(O)C(=O)N(Cc2ccccc2)c2ccc(Cl)cc21)c1ccc(C(=O)NCC2CCC3(CC2)OOC2(CCCCC2)OO3)cc1 (stereo not drawn) = 1.66 µM

Please fill in: TGI reported for "CC1(C)S[C@@H]2[C@H](N3C(=O)c4ccccc4C3=O)CN2[C@H]1NC(=O)N[C@@H]1N2C[C@@H](N3C(=O)c4ccccc4C3=O)[C@H]2SC1(C)C" = > 100 µM

Please fill in: TGI reported for "NNC(=O)CC(=O)Nc1cccc(Cl)c1" = > 100 µM

Please fill in: TGI reported for "Cc1ccc(C(=O)Nc2ccc(CP(=O)(O)O)cc2)cc1NC(=O)c1cccc(N)c1" = > 100 µM

Please fill in: TGI reported for C=C1CC2(CC(c3ccccc3Cl)OC(c3ccccc3Cl)C2)OC1=O (stereo not drawn) = 5.51 µM

Please fill in: TGI reported for "O=C(O)C[C@@H](Cl)[C@H](NC(=O)OCc1ccccc1)C(=O)O" = > 100 µM

Please fill in: TGI reported for CC(CCC[C@H](C)CO)[C@H]1[C@@H](O)C(O)C2[C@@H]3C[C@@H](O)C4(O)C[C@@H](O)CC[C@]4(C)C3CC[C@@]21C (stereo partly drawn) = > 100 µM

Please fill in: TGI reported for "COc1cccc(/C=C/C(=O)c2ccc(SC)cc2)c1OC" = 45 µM

Please fill in: TGI reported for OCC1COc2cc(Cl)c(Cl)cc2O1 (stereo not drawn) = > 10 µM

Please fill in: TGI reported for "COc1ccc2c(c1)c(-c1nc(-c3c[nH]c4ncccc34)cs1)cn2CCCN1CCCCC1" = 3.52 µM

Please fill in: TGI reported for "CCOC(=O)Cn1c2ccccc2c(=O)c2cc(C)c(C)c(C#N)c21" = > 100 µM

Please fill in: TGI reported for CCCCCCCCCCCCOP(=O)(O)OP(=O)(O)OCC1OC(n2ccc(N)nc2=O)CC1O (stereo not drawn) = > 100 µM

Please fill in: TGI reported for COc1ccc(/C(=N\NC(=O)NN)C(c2ccc(OC)cc2)C2(O)C(=O)Nc3c(Cl)cc(Cl)cc32)cc1 (stereo not drawn) = > 100 µM

Please fill in: TGI reported for "Cc1c(C)c(C)c(Cn2[nH]c(=O)n(C)c2=O)c(C)c1C" = > 100 µM

Please fill in: TGI reported for N#CC(/C(CCC(=O)Nc1ccc(Cl)cc1)=N/NC(=O)c1cc2ccccc2cc1O)c1ccccc1 (stereo not drawn) = > 100 µM

Please fill in: TGI reported for "O=C/C1=C/C2=Cc3ccccc3C=C(/C=C(/C=O)C1)C2" = > 100 µM
